- system.under.test: unrelated control antibody
- protocol.summary: phage ELISA, coated control mAb, 10^8 phagemid per well
Positions of bridges follow the written chain, without caps; N, C: chain ends. No end group written: not given here.
measured.quantity: ELISA (absorbance units) (absorbance units)
Answers are plain numbers.

Below, 2 binders whose answers are already recorded.
CSFFYSLCYCWCS (disulfide (positions not given here); also: four Cys, disulfide pairing not given here) [phagemid CS1-31p (phage-displayed disulfide cyclized 13 mer peptide)] :: 0.116
CSGLYPWDYFMCS (disulfide 1-12 (inferred); also: displayed on phage (phagemid)) [phagemid CS1-29p (phage-displayed disulfide cyclized 13 mer peptide)] :: 0.125

Consider now this further binder.
Give the measured ELISA (absorbance units) (absorbance units) of CSLFYLWDQDRCS (disulfide 1-12 (inferred); also: displayed on phage (phagemid), coat fusion not given here) [phagemid CS1-2p (phage-displayed disulfide cyclized 13 mer peptide)] .
0.188
